Values compiled from the supplement of paper PMC11451515.

test system: SEM cells; assay: cell viability relative to DMSO control; higher = less cytotoxic; conditions: RPMI 5 mM glucose + 10% FBS; 48 h; 1.71 µM
Item-by-item account of cell viability
Be sure to follow the number with its unit.

# input Any idea what its cell viability is? The molecule is `CC(=O)O[C@@]12CO[C@@H]1C[C@H](O)[C@]3(C)[C@@H]2[C@H](OC(=O)C4=CC=CC=C4)[C@]5(O)C[C@H](O)/C(=C(/[C@@H](O)C3=O)C5(C)C)C`
# output 65.2%

# input Any idea what its cell viability is? The molecule is `Cc1cc(-c2ccc(CC(=O)Nc3ccc(-c4cccnc4)cc3)cc2)ccn1`
# output 112%

# input Any idea what its cell viability is? The molecule is `Cc1nc(C(=O)NCC(=O)O)c(O)c2ccc(Oc3ccccc3)cc12`
# output 94.8%

# input Any idea what its cell viability is? The molecule is `CN(C)[C@H]\1[C@@H]2[C@@H](O)[C@H]3\C(=C(O)/[C@]2(O)C(=O)\C(=C1O)C(N)=O)C(=O)C4=C(C=CC=C4O)[C@@]3(C)O`
# output 121%

###

Item-by-item account of cell viability
system: NOMO1; assay: cell viability relative to DMSO control; higher = less cytotoxic; conditions: HPLM + 10% dialyzed FBS; 48 h; 0.00234 µM
Numbers only; they are read as %.

>>> endpoint_result("COCCNCCCn1c(C(=O)CF)c(-c2ccc(C)cc2)c2c(N)ncnc21")
120

# input Any idea what its cell viability is? The compound is COc1cc([C@@H]2c3cc4c(cc3[C@@H](O)C3COC(=O)C32)OCO4)cc(OC)c1O (stereo not given in full)
# output 100

# input Any idea what its cell viability is? The compound is `COc1c(C)c2c(c(O)c1C/C=C(\C)CCC(=O)OCCN1CCOCC1)C(=O)OC2`
# output 91.9

# input Any idea what its cell viability is? The compound is `CN1\C(=C(O)/C2=C(C=C(Cl)S2)[S+]1([O-])=O)C(=O)NC3=NC=CC=C3`
# output 112

# input Any idea what its cell viability is? The compound is Clc1ccc(C(Cn2ccnc2)OCc2ccsc2Cl)c(Cl)c1 (stereo not given)
# output 127

# input Any idea what its cell viability is? The compound is COc1ccc(CC2SC(=O)NC2=O)cc1C(=O)NCc1ccc(C(F)(F)F)cc1 (stereo not given)
# output 83.3

# input Any idea what its cell viability is? The compound is `CN(C)[C@H]\1[C@@H]2[C@@H](O)[C@H]3\C(=C(O)/[C@]2(O)C(=O)\C(=C1O)C(N)=O)C(=O)C4=C(C=CC=C4O)[C@@]3(C)O`
# output 117

# input Any idea what its cell viability is? The compound is `CCC[S+](=O)([O-])Nc1ccc(F)c(C(=O)c2c[nH]c3ncc(-c4ccc(Cl)cc4)cc23)c1F`
# output 112

###

tested on: P12-Ichikawa; test: cell viability relative to DMSO control; higher = less cytotoxic; conditions: HPLM + 10% dialyzed FBS; 48 h; 0.000781 µM
Item-by-item account of cell viability
Numbers only; they are read as %.

Example entries begin here.
>>> endpoint_result("CC(C)N(CCCNC(=O)Nc1ccc(C(C)(C)C)cc1)C[C@H]1O[C@@H](n2cc(Br)c3c(N)ncnc32)[C@H](O)[C@@H]1O")
85.8
>>> endpoint_result("COc1ccc(-c2cc3c(C)nc(N)nc3n([C@H]3CC[C@H](OCCO)CC3)c2=O)cn1")
103
>>> endpoint_result("OC[C@H]1O[C@H](C[C@@H]1O)N2\\C=C(\\I)C(=O)NC2=O")
113
>>> endpoint_result("CN1CCC(=C2c3ccccc3CCc3sccc32)CC1")
110
>>> endpoint_result("CN(C)Cc1cccc(N/C(=C2\\C(=O)Nc3cc(C(=O)N(C)C)ccc32)c2ccccc2)c1")
95.7
>>> endpoint_result("N#C[C@@H]1C[C@@H]2C[C@@H]2N1C(=O)[C@@H](N)C12CC3CC(CC(O)(C3)C1)C2")
121

# input Any idea what its cell viability is? The molecule is O=C1C(CCC(O)c2ccc(F)cc2)C(c2ccc(O)cc2)N1c1ccc(F)cc1 (stereo not drawn)
# output 108

# input Any idea what its cell viability is? The molecule is `CCC1=C2CN3C(=O)\C4=C(/C=C3/C2=NC5=CC=C(O)C=C15)[C@@](O)(CC)C(=O)OC4`
# output 97

###

system: NOMO1; assay: cell viability relative to DMSO control; higher = less cytotoxic; settings: HPLM + 10% dialyzed FBS; 48 h; 0.0211 µM
Item-by-item account of cell viability
Numbers only; they are read as %.

>>> endpoint_result("Cc1ccc(Nc2nccc(N(C)c3ccc4c(C)n(C)nc4c3)n2)cc1[S+](N)(=O)[O-]")
112
>>> endpoint_result("COC1=C(CC=C(C)C)C2=C(\\C=C/C(=O)O2)C=C1")
110
>>> endpoint_result("COc1cc([C@@H]2c3cc4c(cc3[C@@H](O)C3COC(=O)C32)OCO4)cc(OC)c1O (stereo partly specified)")
37
>>> endpoint_result("Cc1nc(C(=O)NCC(=O)O)c(O)c2ccc(Oc3ccccc3)cc12")
119

# input Any idea what its cell viability is? The compound is CCN(CCO)CCCC(C)Nc1ccnc2cc(Cl)ccc12 (stereo unspecified)
# output 123

# input Any idea what its cell viability is? The compound is `O=C(Nc1ccncc1)C(=O)c1cn(Cc2ccc(Cl)cc2)c2ccccc12`
# output 105

###

Item-by-item account of cell viability
system: NOMO1; experiment: cell viability relative to DMSO control; higher = less cytotoxic; conditions: RPMI 5 mM glucose + 10% dialyzed FBS; 48 h; 15.4 µM

# input Any idea what its cell viability is? The molecule is `Oc1ccc(-c2nc(-c3ccncc3)c(-c3ccc(F)cc3)[nH]2)cc1`
# output 36.8%

###

test system: P12-Ichikawa; experiment: cell viability relative to DMSO control; higher = less cytotoxic; conditions: RPMI 5 mM glucose + 10% FBS; 48 h; 0.0211 µM
// boundary case: cell viability equal to 90% maps to no; strictly smaller maps to yes

# input Please indicate whether the reported cell viability of `CN1\C(=C(O)/C2=C(C=C(Cl)S2)[S+]1([O-])=O)C(=O)NC3=NC=CC=C3` is strictly below 90%.
# output no

###

tested on: NOMO1; assay: cell viability relative to DMSO control; higher = less cytotoxic; settings: RPMI 5 mM glucose + 10% FBS; 48 h; 0.000781 µM
Item-by-item account of cell viability
Numbers only; they are read as %.

Example entries begin here.
>>> endpoint_result("CCc1nc(C(N)=O)c(Nc2ccc(N3CCC(N4CCN(C)CC4)CC3)c(OC)c2)nc1NC1CCOCC1")
99.1
>>> endpoint_result("Cc1ccc(C)c(OCCCC(C)(C)C(=O)O)c1")
78.1

# input Any idea what its cell viability is? The compound is `Cc1nc(C(=O)NCC(=O)O)c(O)c2ccc(Oc3ccccc3)cc12`
# output 99.4

###

Item-by-item account of cell viability
system: NOMO1; assay: cell viability relative to DMSO control; higher = less cytotoxic; conditions: RPMI 5 mM glucose + 10% dialyzed FBS; 48 h; 0.569 µM
Numbers only; they are read as %.

Example entries begin here.
>>> endpoint_result("CN1CCN(CC1)C/2=N/C3=CC=CC=C3NC4=C2C=C(C)S4")
99.3
>>> endpoint_result("COCCNCCCn1c(C(=O)CF)c(-c2ccc(C)cc2)c2c(N)ncnc21")
99.4
>>> endpoint_result("CNC(=O)c1ccccc1Sc1ccc2c(/C=C/c3ccccn3)n[nH]c2c1")
107

# input Any idea what its cell viability is? The compound is `Cc1nc(N)sc1-c1ccnc(Nc2ccc(N3CCOCC3)cc2)n1`
# output 110

###

system: P12-Ichikawa; experiment: cell viability relative to DMSO control; higher = less cytotoxic; conditions: RPMI 5 mM glucose + 10% FBS; 48 h; 46.1 µM
// boundary case: cell viability equal to 60% maps to FALSE; strictly smaller maps to TRUE

>>> classification("CC[C@@H](C)[C@H](NC(=O)[C@H](CC1CCCCC1)NC(=O)c1ccno1)C(=O)N1CCC2(CCc3ccccc32)CC1")
"FALSE"
>>> classification("Cc1cc(-c2ccc(CC(=O)Nc3ccc(-c4cccnc4)cc3)cc2)ccn1")
"FALSE"
>>> classification("O=C(c1ccc(C(=O)N2CCC(N3CCCC3)CC2)c(Nc2ccccc2)c1)N1CCC(N2CCCC2)CC1")
"FALSE"

# input Please indicate whether the reported cell viability of Oc1ccc(C2CNCCc3c2cc(O)c(O)c3Cl)cc1 (centres undefined) is strictly below 60%.
# output FALSE

# input Please indicate whether the reported cell viability of `COc1cc2nc(N3CCN(C(=O)c4ccco4)CC3)nc(N)c2cc1OC` is strictly below 60%.
# output TRUE

# input Please indicate whether the reported cell viability of O=P1(NCCCl)OCCCN1CCCl (centres undefined) is strictly below 60%.
# output FALSE

# input Please indicate whether the reported cell viability of `NNC(=O)c1ccncc1` is strictly below 60%.
# output FALSE

# input Please indicate whether the reported cell viability of `O=C1N\N=C(\C[C@@H]2CCN(C2)C(=O)C3CC3)N1C4=CC=C(C=C4)C5=CC=C6OC=CC6=C5` is strictly below 60%.
# output FALSE

# input Please indicate whether the reported cell viability of `CN1C(=O)\C(=C/C2=C1N=C(NC3CCOCC3)N=C2)OC4=C(F)C=C(F)C=C4` is strictly below 60%.
# output TRUE

# input Please indicate whether the reported cell viability of `N[C@@H](Cc1cc(I)c(Oc2cc(I)c(O)c(I)c2)c(I)c1)C(=O)O` is strictly below 60%.
# output FALSE

# input Please indicate whether the reported cell viability of `O=C(Nc1cccc2c(=O)cc(-c3nnn[nH]3)oc12)c1ccc(OCCCCc2ccccc2)cc1` is strictly below 60%.
# output TRUE

# input Please indicate whether the reported cell viability of `N[S+](=O)([O-])c1cc2c(cc1Cl)NCN[S+]2(=O)[O-]` is strictly below 60%.
# output FALSE

# input Please indicate whether the reported cell viability of `CNC(=O)c1cc(Oc2ccc(NC(=O)Nc3ccc(Cl)c(C(F)(F)F)c3)c(F)c2)ccn1` is strictly below 60%.
# output FALSE

# input Please indicate whether the reported cell viability of `Cc1ccnc(N[S+](=O)([O-])c2ccc(NC(=O)Nc3ccc([S+](=O)([O-])Nc4nccc(C)n4)cc3)cc2)n1` is strictly below 60%.
# output TRUE

# input Please indicate whether the reported cell viability of `O=C(N[C@H]1CN2CCC1CC2)c1ccc(Cl)cc1` is strictly below 60%.
# output FALSE
